# Tested on: L1210 leukemia ip in BDF1 mice, survival T/C
# assay name: NCI In Vivo Anticancer Drug Screen. Data for tumor model L1210 Leukemia (intraperitoneal) in B6D2F1 (BDF1) mice
# assay setup: endpoint: mean survival time; dose: 100.0 mg/kg/injection; schedule: Q01DX001 (ip); vehicle: Klucel (hydroxypropylcellulose) (HPC); higher = longer survival
Toxic doses and inconclusive results are not listed.
quantity name: T/C

Sample records with T/C:
- CCCCN=C=NCCCC: 93 % of control
- COc1ccc2c(c1)CCC1=C(C)C(=O)CCC12C (configuration not stated): 102 % of control
- Nc1cc(O)c(CCCNC(=O)CBr)c(-c2ccccc2)c1: 92 % of control
- COC(=O)C1C(=O)C(C(=O)OC)C2C(C(=O)OC)C(=O)C(C(=O)OC)C12 (configuration not stated): 104 % of control
- Cc1ccc2nc(C)ccc2c1: 109 % of control

Which T/C is reported for this molecule? CCOC(=O)C(Cc1ccc2ccccc2n1)C(=O)OCC
100 % of control

Cool, now C#CCCN1CCC2(CC1)C(=O)NCN2c1ccccc1
91 % of control

---

# System: L1210 leukemia ip in BDF1 mice, survival T/C
# assay name: NCI In Vivo Anticancer Drug Screen. Data for tumor model L1210 Leukemia (intraperitoneal) in B6D2F1 (BDF1) mice
# assay setup: endpoint: mean survival time; dose: 50.0 mg/kg/injection; schedule: Q04DX003 (ip); vehicle: Klucel (hydroxypropylcellulose) (HPC); higher = longer survival
Toxic doses and inconclusive results are not listed.
Documented T/C across a set of compounds

• O=C(CC(=O)c1ccccc1)Nc1ccc([N+](=O)[O-])cn1 = 91 % of control
• CCc1cccc(CC)c1N1C(=O)C2C(C1=O)C1(Cl)C(Cl)=C(Cl)C2(Cl)C1(Cl)Cl (stereo not given) = 93 % of control

Which T/C is reported for this compound? N#CCN1C(=O)c2ccccc2C1=O
100 % of control

Cool, now O=C(O)CSC(SCC(=O)O)c1ccccc1
108 % of control

Cool, now CN1CN(c2ccccc2)C2(CCN(CCCCCCC#N)CC2)C1=O
94 % of control

---

# Test system: L1210 leukemia ip in BDF1 mice, survival T/C
# assay name: NCI In Vivo Anticancer Drug Screen. Data for tumor model L1210 Leukemia (intraperitoneal) in B6D2F1 (BDF1) mice
# assay setup: endpoint: mean survival time; dose: 100.0 mg/kg/injection; schedule: Q01DX001 (ip); vehicle: Klucel (hydroxypropylcellulose) (HPC); higher = longer survival
Toxic doses and inconclusive results are not listed.
quantity name: T/C

Sample records with T/C:
* CCOc1ccc(-n2c(O)c(N=Nc3ccccc3C)c(=O)n(-c3ccc(OC)cc3)c2=S)cc1 | 94 % of control
* Nc1nnnn1C(=O)NCCCl | 111 % of control
* Cc1cc(S(=O)(=O)F)ccc1NC(=O)CCc1ccc(N2C(N)=NC(N)=NC2(C)C)cc1 | 98 % of control

Which T/C is reported for this compound? CCCCCCCCCCCCCC(=O)CC(=O)OC
103 % of control

Cool, now CCOC(=O)c1[nH]c(C)c(/C(=N/NC(N)=O)C(=O)OC)c1C
103 % of control

Cool, now O=P1(N(CCCl)CCCl)N(Cc2ccccc2)c2ccccc2N1Cc1ccccc1
102 % of control

Cool, now O=Nc1c2cc3ccccc3[nH]c-2c2ccccc12
93 % of control

Cool, now Cc1ccc(-n2c(O)c(N=Nc3ccc(Cl)cc3)c(=O)n(-c3ccc(Cl)cc3)c2=S)cc1
105 % of control

---

# Test system: L1210 leukemia ip in BDF1 mice, survival T/C
# assay name: NCI In Vivo Anticancer Drug Screen. Data for tumor model L1210 Leukemia (intraperitoneal) in B6D2F1 (BDF1) mice
# assay setup: endpoint: mean survival time; dose: 100.0 mg/kg/injection; schedule: Q04DX003 (ip); vehicle: Klucel (hydroxypropylcellulose) (HPC); higher = longer survival
Toxic doses and inconclusive results are not listed.
quantity name: T/C

Which T/C is reported for this compound? Clc1cc(Cl)c(/C=C/c2c(Cl)cc(Cl)cc2Cl)c(Cl)c1
98 % of control

Cool, now c1ccc(C2C(c3ccccc3)N2C23CC4CC(CC(C4)C2)C3)cc1 (configuration not stated)
88 % of control

---

Documented T/C across a set of compounds
# Tested on: L1210 leukemia ip in BDF1 mice, survival T/C
# assay name: NCI In Vivo Anticancer Drug Screen. Data for tumor model L1210 Leukemia (intraperitoneal) in B6D2F1 (BDF1) mice
# assay setup: endpoint: mean survival time; dose: 400.0 mg/kg/injection; schedule: Q04DX003 (ip); vehicle: Klucel (hydroxypropylcellulose) (HPC); higher = longer survival
Toxic doses and inconclusive results are not listed. Square brackets hold non-standard residues; d marks the D form. Peptide text beside a SMILES is read from it. * marks the point of attachment. ξ: configuration not given here. Cbz = O=C(OCc1ccccc1)*; ξL = CC(C)CC(N)C(=O)O

Sample records with T/C:
• CC1SCSCS1 = 98 % of control
• CCOC(=O)NC(C)c1cccc2ccccc12 (stereo not drawn) = 90 % of control
• c1ccc(-c2nc3ccccc3nc2-c2ccccc2)cc1 = 90 % of control
• COC(=O)C(CC(C)C)NC(=O)CNC(=O)CNC(=O)OCc1ccccc1 (stereo not drawn) (Cbz-Gly-Gly-[ξL]-OMe) = 96 % of control
• CCOC(=O)c1cnc(SC)nc1NN=C(C)C = 93 % of control
• Cc1ccc(NC(=O)N2CCN(c3ccccc3)CC2)c([N+](=O)[O-])c1 = 91 % of control
• COc1ccc(OC)c(NC(=O)Nc2ccc(N(C)C(C)=O)cc2)c1 = 88 % of control
• Clc1cc(Cl)c(/C=C/c2c(Cl)cc(Cl)cc2Cl)c(Cl)c1 = 95 % of control

Which T/C is reported for this compound? COc1cc(CCl)cc(OC)c1OC
97 % of control

Cool, now CC1(C)OC(=O)C2C3CCC(C2C(=O)O)C31 (stereo not drawn)
100 % of control

---

Documented T/C across a set of compounds
# Test system: L1210 leukemia ip in BDF1 mice, survival T/C
# assay name: NCI In Vivo Anticancer Drug Screen. Data for tumor model L1210 Leukemia (intraperitoneal) in B6D2F1 (BDF1) mice
# assay setup: endpoint: mean survival time; dose: 400.0 mg/kg/injection; schedule: Q04DX002 (ip); vehicle: Klucel (hydroxypropylcellulose) (HPC); higher = longer survival
# Method: The antitumor activity of compounds was measured in mice bearing transplantable tumors. Survival or tumor size were measured and the results are expressed as the measurement made in the treated group (T) divided by the measurement made in the vehicle treated control group (C). The tumor model used in this assay is L1210 Leukemia (intraperitoneal) in B6D2F1 (BDF1) mice
Toxic doses and inconclusive results are not listed.

Which T/C is reported for this compound? NC(=O)NC(=O)NCc1ccccc1
94 % of control

Cool, now O=C(Oc1ccccc1[N+](=O)[O-])c1ccc(Cl)c(Cl)c1
100 % of control

Cool, now CNC(=O)NCCN(C)c1ccccc1
106 % of control

Cool, now O=C(COCC(=O)N/N=C/c1ccccc1O)N/N=C/c1ccccc1O
100 % of control

Cool, now CC(C)=NOS(=O)(=O)c1c(C)cc(C)cc1C
92 % of control

---

# Tested on: L1210 leukemia ip in BDF1 mice, survival T/C
# assay name: NCI In Vivo Anticancer Drug Screen. Data for tumor model L1210 Leukemia (intraperitoneal) in B6D2F1 (BDF1) mice
# assay setup: endpoint: mean survival time; dose: 6.25 mg/kg/injection; schedule: Q01DX009 (ip); vehicle: saline
Toxic doses and inconclusive results are not listed. Rule as the data show it: active = T/C of 150% or more; inactive = T/C below 125%.
Write down one outcome, taken from 1 (yes) (active), 0 (no) (inactive)

• OCc1ccn2c1[C@@H](O)CC2 = 0 (no)

Lab log entry: Nc1nc(=S)c2ncn(C3CC(O)C(CO)O3)c2[nH]1 (centres undefined) — outcome as called in the assay?
1 (yes)

Cool, now CC(CN1CC(=O)NC(=O)C1)N1CC(=O)NC(=O)C1.[Cl-].[Pt+4] (centres undefined)
0 (no)

Cool, now ClC/C=C/C[P+](c1ccccc1)(c1ccccc1)c1ccccc1
0 (no)

---

# Test system: L1210 leukemia ip in BDF1 mice, survival T/C
# assay name: NCI In Vivo Anticancer Drug Screen. Data for tumor model L1210 Leukemia (intraperitoneal) in B6D2F1 (BDF1) mice
# assay setup: endpoint: mean survival time; dose: 100.0 mg/kg/injection; schedule: Q01DX009 (ip); vehicle: Klucel (hydroxypropylcellulose) (HPC); higher = longer survival
Toxic doses and inconclusive results are not listed.
quantity name: T/C

Sample records with T/C:
• BrC1CCC(Br)C(Br)CCC1Br (configuration not stated) = 104 % of control
• O=[N+]([O-])c1ccc2c(c1)Cc1cc(Br)ccc1-2 = 106 % of control
• CC(=O)Nc1ccc(NC(=O)C2CC2)cc1 = 95 % of control
• CC1CCCC/C1=N/NC(N)=O (configuration not stated) = 97 % of control
• Cc1c(Br)c(=O)n(-c2ccccc2)n1C = 98 % of control

Which T/C is reported for this compound? Cc1cc(C)c(NC(=O)c2ccccc2F)cc1C
101 % of control

Cool, now Cc1ccccc1N=Cc1ccc2c(c1)OCO2
96 % of control

Cool, now O=C(Nc1cccc(C(F)(F)F)c1)N(C1CCCCC1)C1CCCCC1
92 % of control

Cool, now ClC1OC(Cl)(Cl)C(Cl)(Cl)OC1(Cl)Cl (configuration not stated)
103 % of control

Cool, now CC1CCC(C(C)C)C(OC(=O)c2c([N+](=O)[O-])ccc([N+](=O)[O-])c2Br)C1 (configuration not stated)
105 % of control

Cool, now C/C=C/C(=O)Nc1ccc(CC)cc1
95 % of control

Cool, now O=[N+]([O-])c1ccc(C(Br)C(Br)c2ccccc2Br)cc1 (configuration not stated)
98 % of control

Every entry's value here was drawn from PubChem BioAssay AID248.
